Test system: Wnt signaling pathway (Top-Flash reporter gene)
Experiment: Top-Flash Wnt reporter gene assay in HEK293T cells with Wnt3a conditioned medium
Format: cell-based
Settings: footnotes of Tables 8 and 9: S-3 control in the run of the compounds marked a or b; listed as S-3; read-out: corresponding IC50 value of S-3 (Wnt signaling pathway)
readout.type: IC50
Don't forget the unit after the number, please.

Look up IC50 for this compound: C=C1C(=O)[C@]23CC[C@H]1CC2[C@@]12CCC[C@@](C)(COC1=O)C2C[C@H]3O (stereo partly shown) [Compound 1, 15-oxospiramilactone]
15.3 µM

---

Test system: SW-480 (human colon cancer cells)
Test: MTT inhibition of tumor cell growth, SW-480
Assay type: cell-based
Conditions: Homo sapiens, SW480, 48 h, Table 1, 7-hydroxy derivatives of S-3, read-out: IC50 SW-480
readout.type: pIC50
Numbers only, as −log10 of the molar value.

As a guide, the following entries are already answered.
C=C1C(=O)C23CC[C@H]1CC2[C@@]12CCC[C@@](C)(COC1=O)C2C[C@H]3OS(C)(=O)=O (some centres unmarked) [Compound 1q]: 5.46
C=C1C(=O)[C@]23CC[C@H]1CC2[C@@]12CCC[C@@](C)(COC1=O)C2C[C@H]3S(=O)(=O)c1ccccc1[N+](=O)[O-] (some centres unmarked) [Compound 1u]: 4.73
C=C1C(=O)C23CC[C@H]1CC2[C@@]12CCC[C@@](C)(COC1=O)C2C[C@H]3OC(=O)[C@@H](C)Cl (some centres unmarked) [Compound 1i]: 5.60
C=C1C(=O)[C@]23CC[C@H]1CC2[C@@]12CCC[C@@](C)(COC1=O)C2C[C@H]3OS(=O)(=O)c1ccc(Cl)cc1 (some centres unmarked) [Compound 1t]: 5.72
C=C1C(=O)C23CC[C@H]1CC2[C@@]12CCC[C@@](C)(COC1=O)C2C[C@H]3OS(=O)(=O)c1ccccc1 (some centres unmarked) [Compound 1s]: 5.54

I would be grateful if you could provide pIC50 for each of the following entries.
1. C=C1C(=O)C23CC[C@H]1CC2[C@@]12CCC[C@@](C)(COC1=O)C2C[C@H]3OC(=O)C(F)(F)F (some centres unmarked) [Compound 1f]
2. C=C1C(=O)C23CC[C@H]1CC2[C@@]12CCC[C@@](C)(COC1=O)C2C[C@H]3OC(=O)c1ccco1 (some centres unmarked) [Compound 1n]
3. C=C1C(=O)C23CC[C@H]1CC2[C@@]12CCC[C@@](C)(COC1=O)C2C[C@H]3OC(=O)c1ccccc1 (some centres unmarked) [Compound 1j]

[5.11, 5.65, 5.40]

Answer for every listed entry: what is its pIC50? The entries follow.
1. C=C1C(=O)[C@]23CC[C@H]1CC2[C@@]12CCC[C@@](C)(COC1=O)C2C[C@H]3OC(=O)CCl (some centres unmarked) [Compound 1c]
2. C=C1C(=O)[C@]23CC[C@H]1CC2[C@@]12CCC[C@@](C)(COC1=O)C2C[C@H]3OC=O (some centres unmarked) [Compound 1a]
3. C=C1C(=O)C23CC[C@H]1CC2[C@@]12CCC[C@@](C)(COC1=O)C2C[C@H]3OS(=O)(=O)Cc1ccccc1 (some centres unmarked) [Compound 1r]
4. C=C1C(=O)C23CC[C@H]1CC2[C@@]12CCC[C@@](C)(COC1=O)C2C[C@H]3OC(=O)c1ccc([N+](=O)[O-])cc1 (some centres unmarked) [Compound 1k]
5. C=C1C(=O)C23CC[C@H]1CC2[C@@]12CCC[C@@](C)(COC1=O)C2C[C@H]3OC(=O)/C=C/c1ccccc1 (some centres unmarked) [Compound 1p]
6. C=CC(=O)O[C@@H]1CC2[C@@]3(C)CCC[C@@]2(C(=O)OC3)C2C[C@@H]3CCC21C(=O)C3=C (some centres unmarked) [Compound 1g]

5.54
5.71
5.93
6.16
5.67
5.19
